Assay: Elimination half life in mouse at 5 mg/kg, iv by LC/MS/MS analysis
Type: ADME, organism-based
Design: dose 5 mg/kg, route intravenous
Conditions: in vivo, read-out: beta t1/2 (converted)
Property measured: half-life (h)
Answer with a number only, understood to be in h.

Requested field: half-life. Item: O=[N+]([O-])c1cn2c(n1)OC[C@@H](NCc1ccc(OC(F)(F)F)c(O)c1)C2
0.4

Now this one: O=[N+]([O-])c1cn2c(n1)OC[C@@H](NCc1ccc(OC(F)(F)F)c(Cl)c1)C2
4.3

====

System: Mycobacterium tuberculosis
Experiment: Bactericidal activity against Mycobacterium tuberculosis assessed as minimum concentration required for anaerobicidal activity
Format: functional
Property measured: Activity (µM)
Quick reminder: number only, in µM, skip the unit.

I'd like to know its Activity. The molecule in question is CC(C)N(Cc1ccc(OC(F)(F)F)cc1)[C@@H]1COc2nc([N+](=O)[O-])cn2C1
11

Please give the result for CC(N[C@@H]1COc2nc([N+](=O)[O-])cn2C1)c1ccc(OC(F)(F)F)cc1 (mixture of isomers) too.
5.6

Entry to check: O=[N+]([O-])c1cn2c(n1)OC[C@@H](NCc1ccc(OC(F)(F)F)cc1Br)C2
2

O=[N+]([O-])c1cn2c(n1)OC[C@@H](NCc1ccc(OC(F)(F)F)cc1N1CCOCC1)C2 , same question.
10

Can you check O=[N+]([O-])c1cn2c(n1)OC[C@@H](OCc1ccc(OC(F)(F)F)cc1)C2 [PRETOMANID] next?
8.8

Now consider O=C(c1ccc(Cl)cc1)N(Cc1ccc(OC(F)(F)F)cc1)[C@@H]1COc2nc([N+](=O)[O-])cn2C1 and answer again.
7.8

Now give it for O=[N+]([O-])c1cn2c(n1)OC[C@@H](NCc1ccc(OC(F)(F)F)cc1O)C2 too.
4.4

What about O=[N+]([O-])c1cn2c(n1)OC[C@@H](NCc1ccc(OC(F)(F)F)cc1OCC1CC1)C2 ?
4.2

How about this molecule: O=[N+]([O-])c1cn2c(n1)OC[C@@H](NCc1ccc(OC(F)(F)F)cc1)C2
14

Check CN1CCN(c2cc(OC(F)(F)F)ccc2CN[C@@H]2COc3nc([N+](=O)[O-])cn3C2)CC1 too.
33

Now consider CN(Cc1ccc(OC(F)(F)F)cc1)[C@@H]1COc2nc([N+](=O)[O-])cn2C1 .
2.5

COC(=O)c1cc(CN[C@@H]2COc3nc([N+](=O)[O-])cn3C2)ccc1OC(F)(F)F , same question.
11

Next record, please: COc1cc(CN[C@@H]2COc3nc([N+](=O)[O-])cn3C2)ccc1OC(F)(F)F
2.1

Please do the same for O=CN(Cc1ccc(OC(F)(F)F)cc1)[C@@H]1COc2nc([N+](=O)[O-])cn2C1 as well.
12.5

Do the same for O=[N+]([O-])c1cn2c(n1)OC[C@@H](NCc1ccc(OC(F)(F)F)c(F)c1)C2 please
4.2

Can you check O=[N+]([O-])c1cn2c(n1)OC[C@@H](NCc1ccc(OC(F)(F)F)cc1OC1CC1)C2 next?
2

Proceed to CCCN(Cc1ccc(OC(F)(F)F)cc1)[C@@H]1COc2nc([N+](=O)[O-])cn2C1
3.8

====

System: Liver
Experiment: Half life in mouse liver microsome at 5 mg/kg, iv after 24 hrs by LC/MS/MS analysis
Format: ADME
Settings: microsomes
I'd be grateful if you could share measured t1/2 for these entries.
Response body: numeric value in min, unit text excluded.

I have this compound here, O=[N+]([O-])c1cn2c(n1)OC[C@@H](NCc1ccc(OC(F)(F)F)cc1F)C2 , and I need its recorded t1/2.
14.5

Try the compound CCCN(Cc1ccc(OC(F)(F)F)cc1)[C@@H]1COc2nc([N+](=O)[O-])cn2C1
3.4

Record: O=[N+]([O-])c1cn2c(n1)OC[C@@H](NCc1ccc(OC(F)(F)F)c(Oc3ccccc3)c1)C2
9.3

How about this compound: O=[N+]([O-])c1cn2c(n1)OC[C@@H](NCc1ccc(OC(F)(F)F)cc1OCC1CC1)C2
1.6

====

Test system: Liver
Test: Intrinsic clearance in mouse liver microsome at 5 mg/kg, iv after 24 hrs by LC/MS/MS analysis
Format: ADME
Conditions: microsomes
Would you kindly list CL for each of these molecules?
Answer with a number only, understood to be in µL/min/mg.

Recorded CL of CN(Cc1ccc(OC(F)(F)F)cc1)[C@@H]1COc2nc([N+](=O)[O-])cn2C1 , please.
124.9

Follow-up item: O=[N+]([O-])c1cn2c(n1)OC[C@@H](NCc1ccc(OC(F)(F)F)c(F)c1)C2
58.7

Try the molecule O=[N+]([O-])c1cn2c(n1)OC[C@@H](NCc1ccc(OC(F)(F)F)cc1Cl)C2
69.7

Okay, and O=[N+]([O-])c1cn2c(n1)OC[C@@H](NCc1ccc(OC(F)(F)F)c(Oc3ccccc3)c1)C2 ?
149

// query: O=[N+]([O-])c1cn2c(n1)OC[C@@H](NCc1ccc(OC(F)(F)F)cc1OC1CC1)C2
150.7

# iterate: O=[N+]([O-])c1cn2c(n1)OC[C@@H](NCc1ccc(OC(F)(F)F)cc1F)C2
95.6

Please give the result for O=[N+]([O-])c1cn2c(n1)OC[C@@H](NCc1ccc(OC(F)(F)F)c(Cl)c1)C2 too.
103.4

Please do the same for O=[N+]([O-])c1cn2c(n1)OC[C@@H](NCc1ccc(OC(F)(F)F)cc1OCC1CC1)C2 as well.
866.3

Now give it for O=[N+]([O-])c1cn2c(n1)OC[C@@H](NCc1ccc(OC(F)(F)F)cc1O)C2 too.
96.9

Continue with CCCN(Cc1ccc(OC(F)(F)F)cc1)[C@@H]1COc2nc([N+](=O)[O-])cn2C1
407

And then CC(C)N(Cc1ccc(OC(F)(F)F)cc1)[C@@H]1COc2nc([N+](=O)[O-])cn2C1 , what is it?
433

Similarly, O=[N+]([O-])c1cn2c(n1)OC[C@@H](NCc1ccc(OC(F)(F)F)c(O)c1)C2 ?
61.9

// same read-out, input: O=[N+]([O-])c1cn2c(n1)OC[C@@H](NCc1ccc(OC(F)(F)F)cc1Oc1ccccc1)C2
216.6

====

For each record, write down the corresponding log10(solubility).
Test: Solubility of the compound at pH 6.8
Type: physicochemical
Conditions: buffer
In our notation, the value equals log10 of solubility in µg/mL.

Query: log10(solubility); subject: O=[N+]([O-])c1cn2c(n1)OC[C@@H](NCc1ccc(OC(F)(F)F)cc1O)C2
1.40

Would you mind doing O=[N+]([O-])c1cn2c(n1)OC[C@@H](NCc1ccc(OC(F)(F)F)cc1OCC1CC1)C2 as well?
0.78

Repeat for the following molecule: O=[N+]([O-])c1cn2c(n1)OC[C@@H](NCc1ccc(OC(F)(F)F)cc1Oc1ccccc1)C2
0.48

Next record, please: O=[N+]([O-])c1cn2c(n1)OC[C@@H](NCc1ccc(OC(F)(F)F)cc1F)C2
1.86

Now give it for O=[N+]([O-])c1cn2c(n1)OC[C@@H](NCc1ccc(OC(F)(F)F)cc1Cl)C2 too.
1.48

And then CN(Cc1ccc(OC(F)(F)F)cc1)[C@@H]1COc2nc([N+](=O)[O-])cn2C1 , what is it?
1.00

Try this molecule next: O=[N+]([O-])c1cn2c(n1)OC[C@@H](NCc1ccc(OC(F)(F)F)cc1OC1CC1)C2
1.04

====

Test system: Liver
Assay: Half life in mouse liver microsome at 5 mg/kg, iv after 24 hrs by LC/MS/MS analysis
Format: ADME
Settings: microsomes
Property measured: t1/2 (min)
// return numeric value only (unit: min, not printed)

Bench note: what t1/2 did O=[N+]([O-])c1cn2c(n1)OC[C@@H](NCc1ccc(OC(F)(F)F)cc1O)C2 show?
14.3

Another compound to look at: O=[N+]([O-])c1cn2c(n1)OC[C@@H](NCc1ccc(OC(F)(F)F)c(F)c1)C2
23.6

For CC(C)N(Cc1ccc(OC(F)(F)F)cc1)[C@@H]1COc2nc([N+](=O)[O-])cn2C1 then?
3.2
